Experiment: Partition coefficient of compound between n-octanol and PBS (pH7.4)
Format: physicochemical
Settings: octanol/water, pH 7.4
Kindly supply the reported Lipophilicity values for the records listed here.

Record Cc1nc2cnc(-c3cccc(C(F)(F)F)c3)cn2c1-c1c(F)cc(O)cc1F , field Lipophilicity: 3.81 =

Record Oc1ccc(-c2c(C(F)(F)F)nc3cnc(-c4cccc(C(F)(F)F)c4)cn23)c(F)c1 , field Lipophilicity: 4.84 =

Record COc1ccc(-c2c(C(C)C)nc3cnc(-c4cccc(C(F)(F)F)c4)cn23)cc1OP(=O)(O)O , field Lipophilicity: 0.09 =

Record COc1ccc(-c2c(C3CC3)nc3cnc(-c4cccc(C(F)(F)F)c4)cn23)cc1O , field Lipophilicity: 4.62 =

Record Cc1nc2cnc(-c3ccc(F)c(C(F)(F)F)c3)cn2c1-c1ccc(O)cc1F , field Lipophilicity: 3.39 =

====

Assay: Solubility at 25 degC of compound (diluted from DMSO) in FaSSIF at pH 6.5 (2.24 g/l of SIF powder [Na-taurocholate: 3.0mM, Lecithin:0.75mM, Pancreatin:10mg/ml], 0.42 g/l of NaOH, 4.4 g/l NaH₂PO₄ monobasic dihydrate, 6.19 g/l NaCl) determined after 24h (1h sonication, 22h shaking, 1h sonication) by LCMS/MS
Type: physicochemical
propertyLabel: solubility kinetic at 24 h (µM)
Write the answer as a number in µM, unit excluded.

Record CCc1nc2cnc(-c3ccc(F)c(C(F)(F)C(F)(F)F)c3)cn2c1-c1c(F)cc(O)cc1F , field solubility kinetic at 24 h: 111

====

Test: Mean AUC inf in Swiss albino male mice at 1 mg/kg per compound (administered iv in a mixture of 5 compounds to 3 mice) assessed by LCMS/MS.
Type: ADME, organism-based
Settings: male, Swiss albino, mouse, in vivo
Kindly supply the reported log10 of AUC(0-inf) values for the records listed here.
Field: value | Transform: log10 | Quantity: AUC(0-inf) | Unit: ng·h/mL

Record Oc1cc(F)c(-c2cnc3cnc(-c4cccc(C(F)(F)F)c4)cn23)c(F)c1 , field log10 of AUC(0-inf): 2.94

Record Fc1ccc(-c2cn3c(-c4ccc5[nH]ncc5c4F)c(C(F)(F)F)nc3cn2)cc1C1CCC1 , field log10 of AUC(0-inf): 2.36

Record Fc1ccc(-c2cn3c(-c4ccc5[nH]ncc5c4F)c(C4CC4)nc3cn2)cc1C(F)(F)F , field log10 of AUC(0-inf): 3.39

Record Cc1c(-c2c(C(F)(F)F)nc3cnc(-c4ccc(F)c(C(F)(F)F)c4)cn23)ccc2[nH]ncc12 , field log10 of AUC(0-inf): 3.30

Record COc1ccc(-c2c(C(C)C)nc3cnc(-c4cccc(C(F)(F)F)c4)cn23)cc1O , field log10 of AUC(0-inf): 2.02

Record COc1ccc(-c2c(C(C)C)nc3cnc(-c4cccc(C(F)(F)F)c4)cn23)cc1OP(=O)(O)O , field log10 of AUC(0-inf): 1.40

Record CC(C)c1nc2cnc(-c3cccc(C(F)(F)F)c3)cn2c1-c1ccc2[nH]ncc2c1F , field log10 of AUC(0-inf): 2.97

Record Oc1cc(F)c(-c2c(C3CCC3)nc3cnc(-c4ccc(F)c(C(F)(F)F)c4)cn23)c(F)c1 , field log10 of AUC(0-inf): 3.03

Record CC(C)c1nn2cnc(-c3cccc(C(F)(F)F)c3)cc2c1-c1c(F)cc(O)cc1F , field log10 of AUC(0-inf): 2.29

Record Oc1ccc(-c2cnc3cnc(-c4cccc(C(F)(F)F)c4)cn23)c(F)c1 , field log10 of AUC(0-inf): 1.70

Record COc1ccc(-c2c(C)nn3cnc(-c4cccc(C(F)(F)F)c4)cc23)cc1O , field log10 of AUC(0-inf): 1.64

Record Cc1noc(C)c1-c1cn2c(-c3ccc(O)cc3)cnc2cn1 , field log10 of AUC(0-inf): 1.79

Record Oc1cc(F)c(-c2c(C3CC3)nc3cnc(-c4ccc(F)c(C(F)(F)F)c4)cn23)c(F)c1 , field log10 of AUC(0-inf): 3.58

Record COc1ccc(-c2c(C3CC3)nc3cnc(-c4cccc(C(F)(F)F)c4)cn23)cc1O , field log10 of AUC(0-inf): 1.89

Record Cc1nc2cnc(-c3cccc(C(F)(F)F)c3)cn2c1-c1c(F)cc(O)cc1F , field log10 of AUC(0-inf): 2.00

Record CC(C)c1cc(-c2cn3c(-c4ccc5[nH]ncc5c4F)c(C(C)C)nc3cn2)ccc1F , field log10 of AUC(0-inf): 2.75

Record Oc1ccc(-c2c(C(F)(F)F)nc3cnc(-c4cccc(C(F)(F)F)c4)cn23)c(F)c1 , field log10 of AUC(0-inf): 2.31

Record COc1cc(-c2c(C(C)C)nc3cnc(-c4cccc(C(F)(F)F)c4)cn23)cc2cn[nH]c12 , field log10 of AUC(0-inf): 2.69

Record CC(C)c1nc2cnc(-c3ccc(F)c(C(F)(F)F)c3)nc2n1-c1c(F)cc(O)cc1F , field log10 of AUC(0-inf): 2.56

====

Experiment: Solubility at 25 degC of compound (diluted from DMSO) in PBS at pH 7.4 determined after 24h (1h sonication, 22h shaking, 1h sonication) by LCMS/MS
Assay type: physicochemical
propertyLabel: log10 solubility kinetic at 24 h (log10 of the value in µM)
Field: value | Transform: log10 | Quantity: solubility kinetic at 24 h | Unit: µM

Record CC(C)c1nc2cnc(-c3ccc(F)c(S(F)(F)(F)(F)F)c3)cn2c1-c1ccc2[nH]ncc2c1F , field log10 solubility kinetic at 24 h: -0.06

Record CCc1nc2cnc(-c3ccc(F)c(C(F)(F)F)c3)cn2c1-c1ccc2[nH]ncc2c1F , field log10 solubility kinetic at 24 h: 0.26

Record CC(C)c1nc2cnc(-c3cccc(C(F)(F)F)c3)cn2c1-c1ccc(O)cc1F , field log10 solubility kinetic at 24 h: 0.83

Record CC(C)c1nn2cnc(-c3ccc(F)c(C(F)(F)F)c3)cc2c1-c1c(F)cc(O)cc1F , field log10 solubility kinetic at 24 h: 0.82

Record Oc1ccc(-c2cnc3cnc(-c4cccc(C(F)(F)F)c4)cn23)c(F)c1 , field log10 solubility kinetic at 24 h: 0.30

Record COc1ccc(-c2c(C(F)(F)F)nc3cnc(-c4cccc(C(F)(F)C(F)(F)F)c4)cn23)cc1O , field log10 solubility kinetic at 24 h: 0.02

Record CC(C)c1cc(-c2cn3c(-c4ccc5[nH]ncc5c4F)c(C(C)C)nc3cn2)ccc1F , field log10 solubility kinetic at 24 h: -0.11

Record Cc1nc2cnc(-c3ccc(F)c(C(F)(F)F)c3)cn2c1-c1ccc(O)cc1F , field log10 solubility kinetic at 24 h: 0.19

Record Cc1nc2cnc(-c3ccc(F)c(C(F)(F)F)c3)cn2c1-c1c(F)cc(OP(=O)(O)O)cc1F , field log10 solubility kinetic at 24 h: 2.13

Record CC(C)c1nc2cnc(-c3cccc(C(F)(F)F)c3)cn2c1-c1ccc2[nH]ncc2c1F , field log10 solubility kinetic at 24 h: 0.18

Record Cc1nc2cnc(-c3cccc(C(F)(F)F)c3)cn2c1-c1ccc(O)cc1F , field log10 solubility kinetic at 24 h: 0.54

Record Oc1cc(F)c(-c2c(C3CCC3)nc3cnc(-c4ccc(F)c(C(F)(F)F)c4)cn23)c(F)c1 , field log10 solubility kinetic at 24 h: 1.71

Record CCc1nc2cnc(-c3cccc(C(F)(F)F)c3)cn2c1-c1ccc(O)cc1F , field log10 solubility kinetic at 24 h: 1.24

Record CC(C)c1nc2cnc(-c3ccc(F)c(C(F)(F)F)c3)cn2c1-c1c(F)cc(OP(=O)(O)O)cc1F , field log10 solubility kinetic at 24 h: 2.25

Record COc1ccc(-c2c(C)nc3ccc(-c4cccc(C(F)(F)F)c4)cn23)cc1O , field log10 solubility kinetic at 24 h: 0.29

Record Oc1cc(F)c(-c2cnc3cnc(-c4cccc(C(F)(F)F)c4)cn23)c(F)c1 , field log10 solubility kinetic at 24 h: 0.46

Record Cc1nc2cnc(-c3cccc(C(C)C)c3)cn2c1-c1ccc(O)cc1 , field log10 solubility kinetic at 24 h: 0.08

Record CC(C)c1cc(-c2cn3c(-c4ccc5[nH]ncc5c4F)c(C4CCC4)nc3cn2)ccc1F , field log10 solubility kinetic at 24 h: 0.13

Record COc1ccc(-c2c(C(C)C)nc3cnc(-c4cccc(C(F)(F)F)c4)cn23)cc1OP(=O)(O)O , field log10 solubility kinetic at 24 h: 2.32

Record COc1ccc(-c2c(C3CC3)nc3cnc(-c4cccc(C(F)(F)F)c4)cn23)cc1O , field log10 solubility kinetic at 24 h: 0.08

Record Fc1c(-c2c(C3CC3)nc3cnc(-c4cccc(S(F)(F)(F)(F)F)c4)cn23)ccc2[nH]ncc12 , field log10 solubility kinetic at 24 h: 0.23

Record CC(C)c1nc2cnc(-c3cccc(C(F)(F)F)c3)cn2c1-c1ccc(OP(=O)(O)O)cc1F , field log10 solubility kinetic at 24 h: 2.31

Record COc1ccc(-c2c(C(C)C)nc3cnc(-c4ccc(F)c(C(F)(F)F)c4)cn23)cc1O , field log10 solubility kinetic at 24 h: 0.40

Record Oc1cc(F)c(-c2c(C3CC3)nc3cnc(-c4ccc(F)c(C(F)(F)C(F)(F)F)c4)cn23)c(F)c1 , field log10 solubility kinetic at 24 h: 0.50

Record CC(C)c1nn2cnc(-c3cccc(C(F)(F)F)c3)cc2c1-c1c(F)cc(O)cc1F , field log10 solubility kinetic at 24 h: 1.96

Record CC(C)c1nc2cnc(-c3ccc(F)c(C(F)(F)F)c3)nc2n1-c1c(F)cc(O)cc1F , field log10 solubility kinetic at 24 h: 0.10

Record Fc1ccc(-c2cn3c(-c4ccc5[nH]ncc5c4F)c(C4CC4)nc3cn2)cc1S(F)(F)(F)(F)F , field log10 solubility kinetic at 24 h: -0.08

Record Oc1ccc(-c2cnn3ccc(-c4cccc(C(F)(F)F)c4)cc23)c(F)c1 , field log10 solubility kinetic at 24 h: 0.15

Record CC(C)c1cccc(-c2cn3c(-c4ccc(O)cc4F)cnc3cn2)c1 , field log10 solubility kinetic at 24 h: 0.09

Record CCc1nc2cnc(-c3ccc(F)c(C(F)(F)F)c3)cn2c1-c1c(F)cc(O)cc1F , field log10 solubility kinetic at 24 h: 0.18

Record CC(C)c1nc2cnc(-c3cccc(C(F)(F)F)c3)cn2c1-c1c(F)cc(O)cc1F , field log10 solubility kinetic at 24 h: -0.02

Record CC1(c2nc3cnc(-c4ccc(F)c(C(F)(F)F)c4)cn3c2-c2c(F)cc(O)cc2F)CC1 , field log10 solubility kinetic at 24 h: 1.52

Record Oc1cc(F)c(-c2c(C3CC3)nc3cnc(-c4ccc(F)c(S(F)(F)(F)(F)F)c4)cn23)c(F)c1 , field log10 solubility kinetic at 24 h: 1.61

Record Fc1ccc(-c2cn3c(-c4ccc5[nH]ncc5c4F)c(C(F)(F)F)nc3cn2)cc1CC(F)(F)F , field log10 solubility kinetic at 24 h: -1.04

Record CC(C)c1nc2cnc(-c3cccc(S(F)(F)(F)(F)F)c3)cn2c1-c1c(F)cc(O)cc1F , field log10 solubility kinetic at 24 h: 0.82

Record COc1ccc(-c2cnc3cnc(-c4cccc(C(C)C)c4)cn23)cc1O , field log10 solubility kinetic at 24 h: 0.36

Record COc1ccc(-c2c(C(C)C)nc3cnc(-c4cccc(C(F)(F)F)c4)cn23)cc1O , field log10 solubility kinetic at 24 h: 0.32
